- target.entity: JAK1 (Homo sapiens)
- assay.remarks: binding to immobilized V16742 (IVA1/IVA2, HeLa lysate, MS)
- experimental.context: immobilized V16742, read-out: Kd
measurement.type: Kd (µM)
# unit: µM | format: bare number

Exam item: Reported Kd for CC(C)n1c(=O)ccc2cnc(Nc3ccc(OCCN)cc3)nc21 [V16742] : what is it?
Marked response: 11.1

----------
- target.entity: TLK1 (Homo sapiens)
- Construct: endogenous in cells; host or cells: HeLa S3
- Sequence (Q9UKI8 whole entry): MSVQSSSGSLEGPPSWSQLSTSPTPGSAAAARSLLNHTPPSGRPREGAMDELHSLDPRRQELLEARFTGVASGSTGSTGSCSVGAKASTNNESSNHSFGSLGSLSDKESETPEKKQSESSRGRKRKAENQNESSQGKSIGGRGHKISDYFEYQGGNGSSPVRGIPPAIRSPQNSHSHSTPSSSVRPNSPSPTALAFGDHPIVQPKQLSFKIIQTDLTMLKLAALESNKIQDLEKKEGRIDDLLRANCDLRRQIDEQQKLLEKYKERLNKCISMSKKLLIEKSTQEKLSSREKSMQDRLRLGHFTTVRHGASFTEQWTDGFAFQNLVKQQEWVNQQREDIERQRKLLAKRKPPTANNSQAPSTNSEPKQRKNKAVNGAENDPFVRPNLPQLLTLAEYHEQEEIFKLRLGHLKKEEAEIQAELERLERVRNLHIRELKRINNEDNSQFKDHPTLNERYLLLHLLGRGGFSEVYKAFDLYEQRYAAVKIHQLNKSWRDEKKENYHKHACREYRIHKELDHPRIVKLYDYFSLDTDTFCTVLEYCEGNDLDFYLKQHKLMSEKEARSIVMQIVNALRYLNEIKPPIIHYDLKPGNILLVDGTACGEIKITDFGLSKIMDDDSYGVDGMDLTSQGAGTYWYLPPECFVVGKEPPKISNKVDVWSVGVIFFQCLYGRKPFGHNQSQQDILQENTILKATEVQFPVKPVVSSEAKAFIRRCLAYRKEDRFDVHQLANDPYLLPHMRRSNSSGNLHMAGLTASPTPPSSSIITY
- assay.remarks: binding to immobilized V16742 (IVA1/IVA2, HeLa lysate, MS)
- experimental.context: average of two experiments, read-out: Kd Avg
measurement.type: Kd (µM)
Please reply with the bare figure in µM and do not write the unit itself.

Exam item: For CC(C)n1c(=O)ccc2cnc(Nc3ccc(OCCN)cc3)nc21 , what is its reported Kd?
Marked response: 92.4

----------
- target.entity: Erk1 (Homo sapiens)
- Sequence (P27361 whole entry): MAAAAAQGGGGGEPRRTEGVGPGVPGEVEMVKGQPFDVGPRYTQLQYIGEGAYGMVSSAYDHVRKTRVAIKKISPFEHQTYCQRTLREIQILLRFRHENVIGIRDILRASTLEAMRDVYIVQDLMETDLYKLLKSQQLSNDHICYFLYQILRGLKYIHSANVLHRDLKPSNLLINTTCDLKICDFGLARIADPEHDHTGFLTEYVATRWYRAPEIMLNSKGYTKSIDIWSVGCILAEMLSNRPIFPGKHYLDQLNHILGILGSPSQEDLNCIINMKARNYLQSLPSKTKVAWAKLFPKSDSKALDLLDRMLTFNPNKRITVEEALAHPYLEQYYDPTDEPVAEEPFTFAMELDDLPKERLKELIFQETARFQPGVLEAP
- assay.remarks: binding to immobilized V16742 (IVA1/IVA2, HeLa lysate, MS)
- experimental.context: Kd Avg, Erk1; average of two experiments
measurement.type: pKd
// field semantics: pKd = negative decimal log of concentration (mol/L)

Exam item: Find the measured pKd: item CC(C)n1c(=O)ccc2cnc(Nc3ccc(OCCN)cc3)nc21 [V16742] , target or system Erk1 (Homo sapiens).
Marked response: 4.19

----------
- target.entity: TLK2 (Homo sapiens, UniProt Q86UE8)
- Construct: endogenous in cells; host or cells: HeLa S3
- Sequence (Q86UE8 whole entry): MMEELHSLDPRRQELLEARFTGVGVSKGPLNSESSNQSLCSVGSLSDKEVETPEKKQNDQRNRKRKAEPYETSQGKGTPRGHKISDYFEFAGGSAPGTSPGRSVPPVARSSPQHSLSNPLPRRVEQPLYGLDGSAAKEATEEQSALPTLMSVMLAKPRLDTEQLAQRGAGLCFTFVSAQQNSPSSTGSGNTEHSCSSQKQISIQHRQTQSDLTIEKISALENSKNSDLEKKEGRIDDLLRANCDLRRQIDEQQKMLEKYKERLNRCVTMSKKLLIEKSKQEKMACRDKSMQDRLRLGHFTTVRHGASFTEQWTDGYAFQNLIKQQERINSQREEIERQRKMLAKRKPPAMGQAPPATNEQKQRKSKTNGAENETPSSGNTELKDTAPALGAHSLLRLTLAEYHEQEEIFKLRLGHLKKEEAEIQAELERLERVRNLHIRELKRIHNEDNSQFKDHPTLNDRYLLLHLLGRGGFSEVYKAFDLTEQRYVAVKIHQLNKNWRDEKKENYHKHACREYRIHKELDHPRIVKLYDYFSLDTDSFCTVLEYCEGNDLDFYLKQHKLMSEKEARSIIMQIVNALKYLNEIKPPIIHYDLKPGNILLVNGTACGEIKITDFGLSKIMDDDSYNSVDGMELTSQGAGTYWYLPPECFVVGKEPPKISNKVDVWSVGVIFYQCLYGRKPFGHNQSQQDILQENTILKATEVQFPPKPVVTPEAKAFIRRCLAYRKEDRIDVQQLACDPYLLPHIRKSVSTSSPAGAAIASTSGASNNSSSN
- assay.remarks: binding to immobilized V16742 (IVA1/IVA2, HeLa lysate, MS)
- experimental.context: average of two experiments, read-out: Kd Avg
measurement.type: Kd (µM)
A number alone suffices; assume µM.

Exam item: Given the entry CC(C)n1c(=O)ccc2cnc(Nc3ccc(OCCN)cc3)nc21 , what Kd was observed with TLK2 (Homo sapiens, UniProt Q86UE8)?
Marked response: 63.7

----------
- target.entity: JAK1 (Homo sapiens, UniProt P23458)
- Sequence (P23458 whole entry): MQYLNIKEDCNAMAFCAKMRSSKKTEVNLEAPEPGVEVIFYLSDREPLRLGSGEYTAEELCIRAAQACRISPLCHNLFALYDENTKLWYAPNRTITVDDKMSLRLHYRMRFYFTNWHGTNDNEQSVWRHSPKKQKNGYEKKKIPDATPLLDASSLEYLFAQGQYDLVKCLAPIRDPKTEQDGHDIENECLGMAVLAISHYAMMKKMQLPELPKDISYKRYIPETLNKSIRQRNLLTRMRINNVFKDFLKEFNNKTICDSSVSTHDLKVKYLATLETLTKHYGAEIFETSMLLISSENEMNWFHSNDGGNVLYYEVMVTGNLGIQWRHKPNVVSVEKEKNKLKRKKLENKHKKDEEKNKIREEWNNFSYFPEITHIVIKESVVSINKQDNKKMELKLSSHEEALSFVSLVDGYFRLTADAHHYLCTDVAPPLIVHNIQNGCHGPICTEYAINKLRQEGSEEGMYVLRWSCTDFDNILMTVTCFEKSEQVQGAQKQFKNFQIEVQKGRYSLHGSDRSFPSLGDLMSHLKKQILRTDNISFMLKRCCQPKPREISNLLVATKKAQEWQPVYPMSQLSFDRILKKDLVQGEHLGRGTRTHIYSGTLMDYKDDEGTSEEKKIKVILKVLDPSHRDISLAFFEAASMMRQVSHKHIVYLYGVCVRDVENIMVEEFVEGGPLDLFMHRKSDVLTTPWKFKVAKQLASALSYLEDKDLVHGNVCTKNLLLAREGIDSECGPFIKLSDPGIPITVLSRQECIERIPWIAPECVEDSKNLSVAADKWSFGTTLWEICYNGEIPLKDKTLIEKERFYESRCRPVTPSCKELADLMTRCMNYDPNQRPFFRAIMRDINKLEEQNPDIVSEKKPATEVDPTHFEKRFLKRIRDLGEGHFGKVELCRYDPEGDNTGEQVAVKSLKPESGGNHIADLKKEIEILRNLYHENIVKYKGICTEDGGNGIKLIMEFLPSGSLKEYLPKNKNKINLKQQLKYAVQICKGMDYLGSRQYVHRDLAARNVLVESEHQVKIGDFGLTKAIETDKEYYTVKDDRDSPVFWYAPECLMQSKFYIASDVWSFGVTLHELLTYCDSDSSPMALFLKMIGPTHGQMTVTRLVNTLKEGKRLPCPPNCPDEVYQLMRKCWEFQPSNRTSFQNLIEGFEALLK
- assay.remarks: binding to immobilized V16742 (IVA1/IVA2, HeLa lysate, MS)
- experimental.context: EXPERIMENT 2, read-out: Kd
measurement.type: Kd (µM)
# unit: µM | format: bare number

Exam item: Quick one: Kd for CC(C)n1c(=O)ccc2cnc(Nc3ccc(OCCN)cc3)nc21 [compound 16742] ?
Marked response: 17.4

----------
- target.entity: MAP3K5 (Homo sapiens)
- Construct: endogenous in cells; host or cells: HeLa S3
- Sequence (Q99683 1-1374): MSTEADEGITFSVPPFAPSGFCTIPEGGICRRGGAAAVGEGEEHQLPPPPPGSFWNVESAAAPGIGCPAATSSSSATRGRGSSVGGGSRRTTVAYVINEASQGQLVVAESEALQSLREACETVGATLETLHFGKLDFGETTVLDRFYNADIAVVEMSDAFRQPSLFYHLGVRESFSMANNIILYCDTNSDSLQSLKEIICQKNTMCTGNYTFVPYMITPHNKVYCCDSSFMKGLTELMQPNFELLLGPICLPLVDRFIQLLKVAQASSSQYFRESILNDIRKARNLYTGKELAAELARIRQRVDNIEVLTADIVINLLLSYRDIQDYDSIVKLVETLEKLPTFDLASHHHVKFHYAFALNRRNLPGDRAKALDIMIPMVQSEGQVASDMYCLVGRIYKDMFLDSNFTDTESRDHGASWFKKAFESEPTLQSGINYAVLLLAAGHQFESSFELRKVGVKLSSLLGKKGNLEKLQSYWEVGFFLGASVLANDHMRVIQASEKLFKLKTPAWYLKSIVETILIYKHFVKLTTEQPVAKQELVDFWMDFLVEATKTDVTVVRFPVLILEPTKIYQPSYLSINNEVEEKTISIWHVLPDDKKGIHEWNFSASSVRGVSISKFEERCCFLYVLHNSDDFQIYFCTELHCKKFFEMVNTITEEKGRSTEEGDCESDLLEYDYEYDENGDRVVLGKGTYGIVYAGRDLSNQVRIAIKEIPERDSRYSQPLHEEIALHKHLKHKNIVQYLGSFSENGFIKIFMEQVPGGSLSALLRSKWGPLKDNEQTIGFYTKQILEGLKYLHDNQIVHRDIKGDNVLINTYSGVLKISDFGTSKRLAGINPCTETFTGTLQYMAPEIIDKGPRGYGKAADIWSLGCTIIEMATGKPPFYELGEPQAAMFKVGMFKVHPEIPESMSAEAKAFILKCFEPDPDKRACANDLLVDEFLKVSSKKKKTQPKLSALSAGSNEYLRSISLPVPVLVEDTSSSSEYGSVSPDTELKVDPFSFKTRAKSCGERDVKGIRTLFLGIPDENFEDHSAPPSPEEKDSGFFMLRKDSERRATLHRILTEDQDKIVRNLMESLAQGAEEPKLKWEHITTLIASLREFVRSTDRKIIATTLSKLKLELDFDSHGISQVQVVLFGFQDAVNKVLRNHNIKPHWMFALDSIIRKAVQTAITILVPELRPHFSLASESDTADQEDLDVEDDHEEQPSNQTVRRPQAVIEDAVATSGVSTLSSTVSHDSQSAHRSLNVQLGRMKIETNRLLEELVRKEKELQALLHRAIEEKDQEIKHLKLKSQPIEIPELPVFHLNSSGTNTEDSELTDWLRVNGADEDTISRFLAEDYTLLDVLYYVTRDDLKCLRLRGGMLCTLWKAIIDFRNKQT
- assay.remarks: binding to immobilized V16742 (IVA1/IVA2, HeLa lysate, MS)
- experimental.context: average of two experiments, read-out: Kd Avg
measurement.type: Kd (µM)
Response body: numeric value in µM, unit text excluded.

Exam item: Record CC(C)n1c(=O)ccc2cnc(Nc3ccc(OCCN)cc3)nc21 : what is its Kd with MAP3K5 (Homo sapiens)?
Marked response: 148

----------
- target.entity: MASTL (IPI00074258) (Homo sapiens, UniProt Q96GX5)
- Construct: endogenous in cells
- Sequence (Q96GX5 whole entry): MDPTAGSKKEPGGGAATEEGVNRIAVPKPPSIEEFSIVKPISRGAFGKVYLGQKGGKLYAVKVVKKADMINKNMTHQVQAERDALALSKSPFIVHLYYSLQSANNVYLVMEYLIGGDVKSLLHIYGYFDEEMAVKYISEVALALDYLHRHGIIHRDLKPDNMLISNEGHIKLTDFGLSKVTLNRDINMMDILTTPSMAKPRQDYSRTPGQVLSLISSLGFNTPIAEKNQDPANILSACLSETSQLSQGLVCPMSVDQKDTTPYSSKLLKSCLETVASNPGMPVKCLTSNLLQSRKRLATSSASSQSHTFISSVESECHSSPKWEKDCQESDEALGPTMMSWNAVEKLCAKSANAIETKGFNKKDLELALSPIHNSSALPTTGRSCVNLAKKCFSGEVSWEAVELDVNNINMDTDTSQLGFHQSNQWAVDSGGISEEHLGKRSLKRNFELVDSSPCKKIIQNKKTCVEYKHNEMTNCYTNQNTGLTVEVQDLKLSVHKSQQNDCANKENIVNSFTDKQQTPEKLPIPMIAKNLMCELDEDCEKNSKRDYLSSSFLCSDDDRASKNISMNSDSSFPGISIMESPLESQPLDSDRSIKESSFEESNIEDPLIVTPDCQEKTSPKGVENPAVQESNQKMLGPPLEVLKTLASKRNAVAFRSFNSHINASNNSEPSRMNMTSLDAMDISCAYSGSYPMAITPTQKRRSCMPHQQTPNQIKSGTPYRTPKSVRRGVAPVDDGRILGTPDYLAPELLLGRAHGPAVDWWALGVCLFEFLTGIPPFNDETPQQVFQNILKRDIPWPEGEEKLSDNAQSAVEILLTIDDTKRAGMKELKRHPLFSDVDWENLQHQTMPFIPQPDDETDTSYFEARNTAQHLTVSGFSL
- assay.remarks: binding to VI16742 beads (HeLa lysate, SILAC MS)
- experimental.context: immobilized VI16742
measurement.type: Ki (µM)
Report as a plain number; the unit µM is understood.

Exam item: Value lookup for Ki; key = CC(C)n1c(=O)ccc2cnc(Nc3ccc(OCCN)cc3)nc21
Marked response: 109

----------
- target.entity: CK1e (Homo sapiens)
- Sequence (P49674 whole entry): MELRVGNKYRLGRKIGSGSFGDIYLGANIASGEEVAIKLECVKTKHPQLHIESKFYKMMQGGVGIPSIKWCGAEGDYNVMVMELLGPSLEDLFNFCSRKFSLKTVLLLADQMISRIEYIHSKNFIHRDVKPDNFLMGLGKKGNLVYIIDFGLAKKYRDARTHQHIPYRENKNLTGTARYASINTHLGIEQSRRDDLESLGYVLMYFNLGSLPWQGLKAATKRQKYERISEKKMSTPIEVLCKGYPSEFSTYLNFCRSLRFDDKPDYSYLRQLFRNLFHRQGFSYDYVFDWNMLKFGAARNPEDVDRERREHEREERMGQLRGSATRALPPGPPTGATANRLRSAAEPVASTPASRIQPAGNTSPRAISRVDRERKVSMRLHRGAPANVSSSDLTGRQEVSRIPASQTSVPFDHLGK
- assay.remarks: binding to immobilized V16742 (IVA1/IVA2, HeLa lysate, MS)
- experimental.context: Kd, CK1e
measurement.type: pKd
When answering, recall that pKd equals minus log10 of the concentration in mol/L, and write that number alone.

Exam item: Value lookup for pKd; key = CC(C)n1c(=O)ccc2cnc(Nc3ccc(OCCN)cc3)nc21 [compound 16742]
Marked response: 4.84

----------
- target.entity: Isoform 1 of Nicotinamide phosphoribosyltransferase (Homo sapiens)
- Construct: endogenous in cells; host or cells: HeLa S3
- assay.remarks: binding to immobilized V16742 (IVA1/IVA2, HeLa lysate, MS)
- experimental.context: average of two experiments, read-out: Kd Avg
measurement.type: pKd
Scale: negative log10 of molar concentration, which is what pKd denotes.

Exam item: Report pKd for CC(C)n1c(=O)ccc2cnc(Nc3ccc(OCCN)cc3)nc21 [V16742] please.
Marked response: 4.17

----------
- target.entity: UniProt P48730
- Sequence (P48730 whole entry): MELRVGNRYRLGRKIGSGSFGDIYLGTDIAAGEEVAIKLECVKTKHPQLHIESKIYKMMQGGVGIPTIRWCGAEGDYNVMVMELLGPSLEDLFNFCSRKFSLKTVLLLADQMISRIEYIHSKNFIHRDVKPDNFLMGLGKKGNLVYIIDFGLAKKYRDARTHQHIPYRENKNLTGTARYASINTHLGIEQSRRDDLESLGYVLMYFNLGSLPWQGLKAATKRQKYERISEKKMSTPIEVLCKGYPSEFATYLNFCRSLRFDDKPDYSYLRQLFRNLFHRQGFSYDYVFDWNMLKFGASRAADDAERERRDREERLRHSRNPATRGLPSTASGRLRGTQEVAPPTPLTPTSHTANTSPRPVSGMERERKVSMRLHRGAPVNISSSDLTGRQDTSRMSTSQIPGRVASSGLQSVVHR
- assay.remarks: binding to immobilized V16742 (IVA1/IVA2, HeLa lysate, MS)
- experimental.context: EXPERIMENT 2, read-out: Kd
measurement.type: pKd
Field pKd (float): negative decimal logarithm of the concentration in molar.

Exam item: Request body: readout pKd, system UniProt P48730, query CC(C)n1c(=O)ccc2cnc(Nc3ccc(OCCN)cc3)nc21 . Return the value.
Marked response: 5.29

----------
- target.entity: BLMH (Homo sapiens, UniProt Q13867)
- Construct: endogenous in cells; host or cells: HeLa S3
- Sequence (Q13867 1-455): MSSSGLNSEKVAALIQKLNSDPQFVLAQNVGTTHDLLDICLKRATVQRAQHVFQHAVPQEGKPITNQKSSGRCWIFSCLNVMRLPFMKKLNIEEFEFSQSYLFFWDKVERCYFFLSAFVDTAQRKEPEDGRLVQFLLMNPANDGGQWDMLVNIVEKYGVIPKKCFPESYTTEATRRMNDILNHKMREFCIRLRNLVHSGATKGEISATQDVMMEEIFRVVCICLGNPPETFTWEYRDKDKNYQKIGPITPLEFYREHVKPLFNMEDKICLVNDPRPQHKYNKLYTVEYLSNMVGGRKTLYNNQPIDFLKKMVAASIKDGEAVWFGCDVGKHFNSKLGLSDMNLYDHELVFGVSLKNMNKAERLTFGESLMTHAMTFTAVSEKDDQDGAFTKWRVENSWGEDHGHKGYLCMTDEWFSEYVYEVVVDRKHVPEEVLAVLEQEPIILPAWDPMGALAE
- assay.remarks: binding to AX14596 beads (HeLa lysate, SILAC MS)
measurement.type: Ki (µM)
Just the number in µM, nothing appended.

Exam item: Could you share which Ki value was measured for COc1cc2ncnc(Nc3ccc(F)c(Cl)c3)c2cc1OCCCN [AX14596] ?
Marked response: 53.6
